assay: NCI Yeast Anticancer Drug Screen. Data for the mlh1 rad18 strain (AID 175); details: S. cerevisiae mlh1 rad18 strain growth inhibition; at 5.0 µM (retest, dose inferred, filed as 0.5); stronger effect = higher value
The panel holds about 79,000 compounds, 15% with a hit somewhere; the sample as a whole holds those more often.
Classification field: enter YES for growth inhibition values not below 10%, NO for values below it.

Worked examples, 3 compounds total:
Compound: c1ccc2c(c1)CCc1[nH]c3c(c1-2)-c1ccccc1CC3
Class Name: YES
//
Compound: CC(=O)N(C1=C(Cl)C(=O)c2ccccc2C1=O)c1ccc([N+](=O)[O-])cc1
Class Name: YES
//
Compound: O=C(Cn1nnc2ccccc21)N1CCN(c2ccccc2)CC1
Class Name: NO

[in] Confirm if growth inhibition reported for the compound CCOC(=O)c1ccc(NC(=O)O/N=C(/Cl)CC)cc1 is 10% or above.
[out] NO

[in] Confirm if growth inhibition reported for the compound O=[N+]([O-])CC(O)c1ccccc1Cl (stereo not given) is 10% or above.
[out] YES

###

test: NCI Yeast Anticancer Drug Screen. Data for the sgs1 mgt1 strain (AID 161);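 note: 0% = growth of cultures given vehicle only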; conditions: S. cerevisiae sgs1 mgt1 strain, at 5.0 µM (retest, dose inferred, filed as 0.5), stronger effect = higher value
The panel holds about 79,000 compounds, 15% with a hit somewhere; the sample as a whole holds those more often. Where a SMILES comes first, the peptide text is derived from it. The star is where a group is joined. Trt = c1ccc(C(c2ccccc2)(c2ccccc2)*)cc1; Cbz = O=C(OCc1ccccc1)*
Readout Label: growth inhibition (%)
# unit: % | format: bare number

Solved entries (count: 10):
Molecule: Oc1c2c(c(O)c3ncccc13)C1C=CC2CC1 (stereo not given)
Assay Result: -5
--
Molecule: COc1cc2c(cc1O)CCCCC2
Assay Result: 1
--
Molecule: CC(C)(C)c1ccc(-n2c3nc(=O)n(-c4ccccc4C(F)(F)F)c(=O)c-3cc3ccccc32)cc1
Assay Result: 10
--
Molecule: CCCC(O)CNCc1ccc(N(C)C)cc1 (stereo not given)
Assay Result: -3
--
Molecule: CCCCCC1OC1CC1OC1CCCCCCCC(=O)OC (stereo not given)
Assay Result: -4
--
Molecule: CC(C)(C)[Si](C)(C)OCC1OC(n2cc(I)c(N)nc2=O)C(O[Si](C)(C)C(C)(C)C)C1O[Si](C)(C)C(C)(C)C (stereo not given)
Assay Result: 85
--
Molecule: Cc1ccc(NCCNCCO)c2c(=O)c3ccccc3sc12
Assay Result: 9
--
Molecule: CN(C(=O)c1ccc(Cl)cc1)C(=S)N1CCN(c2ccccc2)CC1
Assay Result: -16
--
Molecule: O=C1O/C(=C\c2ccccc2)c2ccccc21
Assay Result: 1
--
Molecule: C/C(=N/Nc1ccc([N+](=O)[O-])cc1[N+](=O)[O-])C(=O)O
Assay Result: -1

Reported growth inhibition of CSc1cc(-c2cc3ccccc3o2)oc(=O)c1C#N : 3

Reported growth inhibition of O=C(Nc1ccccc1)OC1CCCC1 : 12

Reported growth inhibition of CCCCCCCCCCCCOc1c(Cl)cc(Cl)c(Cl)c1Cc1c(O)c(Cl)cc(Cl)c1Cl : 2

Reported growth inhibition of O=[N+]([O-])c1cccc2c(O)cccc12 : -2

Reported growth inhibition of CCOC(=O)c1ccc(NC(=O)CCl)cc1 : 21

Reported growth inhibition of O=c1[nH]c2c([N+](=O)[O-])cc(Cl)cc2nc1/C=C(\O)c1ccc2ccccc2c1 : -8

Reported growth inhibition of CC(=O)Nc1nnc(-c2coc3ccccc3c2=O)s1 : 1

Reported growth inhibition of CCCCCCCCCCCC(=O)OCCN(CCOC(=O)CCCCCCCCCCC)C(=O)COC(=O)CCCCCCCCCCC : 3

Reported growth inhibition of CN(C)C[N+](C)(C)Cc1ccc(C[N+](C)(C)C[N+](C)(C)Cc2ccc(CCl)cc2)cc1 : -2

Reported growth inhibition of CCOC(=O)CCC(NC(=O)C(CSC(c1ccccc1)(c1ccccc1)c1ccccc1)NC(=O)OCc1ccccc1)C(=O)NC(CCC(=O)OCC)C(=O)NC(CCC(=O)OCC)C(=O)NC(CCC(=O)OCC)C(=O)NC(CSC(c1ccccc1)(c1ccccc1)c1ccccc1)C(=O)OC (stereo not given) (Cbz-C(Trt)E(OEt)E(OEt)E(OEt)E(OEt)C(Trt)-OMe; configuration not given here) : -1

###

experiment: NCI Yeast Anticancer Drug Screen. Data for the bub3 strain (AID 167); conditions: S. cerevisiae bub3 mutant strain, at 50.0 µM
The panel holds about 79,000 compounds, 15% with a hit somewhere; the sample as a whole holds those more often. The source made the active and inactive calls. No stated cut-off is given here; in the data, active means growth inhibition above about 70%; inactive means the rest.
Outcome field: choose from yes (active), no (inactive)

Compound: COc1ccc(N2CCN(CC(O)COc3cc4c(c5c3CCCC5)CCCC4)CC2)cc1 (stereo not given)
Class Name: yes
--
Compound: CC(C)=CCC(CC=C(C)C)c1ccncc1 (tested in a mixture with another compound)
Class Name: yes

[in] I would be grateful if you could indicate the recorded call for Oc1ccc(C2CCCCC2)c(O)c1 .
[out] no

[in] I would be grateful if you could indicate the recorded call for Nc1nc(Cl)cc(NCC2(CO)CC(CCCc3ccccc3)C2)n1 (stereo not given) .
[out] no

[in] I would be grateful if you could indicate the recorded call for CCOC(=O)c1cnc2ccc(C3CCCCC3)cc2c1Nc1ccc2c(c1)OCO2 .
[out] no

[in] I would be grateful if you could indicate the recorded call for OC12C3C4CC5C(C4[C@@H]1Br)C2[C@@](O)(c1c(F)c(F)c(F)c(F)c1F)C53 (stereo not given in full) .
[out] yes

[in] I would be grateful if you could indicate the recorded call for CCCCc1ccc(Nc2nc(N)c3[nH]cnc3n2)cc1 .
[out] no

[in] I would be grateful if you could indicate the recorded call for O=c1[nH]c2c([N+](=O)[O-])cc(Cl)cc2nc1/C=C(\O)c1ccc2ccccc2c1 .
[out] yes

[in] I would be grateful if you could indicate the recorded call for Nc1ccc2c(c1)S(=O)(=O)c1cc(O)ccc1O2 .
[out] no

[in] I would be grateful if you could indicate the recorded call for O=C1/C(=C/N2CCN(c3ccccc3)CC2)Cc2c(Cl)cccc21 .
[out] yes

###

test: NCI Yeast Anticancer Drug Screen. Data for the cln2 rad14 strain (AID 165);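 note: 0% = growth equal to vehicle treated cultures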; details: S. cerevisiae cln2 rad14 strain, at 50.0 µM
The panel holds about 79,000 compounds, 15% with a hit somewhere; the sample as a whole holds those more often. The source made the active and inactive calls. Rule as the data show it: active = growth inhibition above about 70%; inactive = the rest.
Outcome field: choose from yes for active, no for inactive

[in] I would be grateful if you could indicate the recorded call for CC(C)(Br)C(=O)c1ccc([N+](=O)[O-])o1 .
[out] yes

[in] I would be grateful if you could indicate the recorded call for CN(Cc1cnc2nc(N[Si](C)(C)C)nc(N[Si](C)(C)C)c2n1)c1ccc(C(=O)NC(CCC(=O)O[Si](C)(C)C)C(=O)O[Si](C)(C)C)cc1 (stereo unspecified) .
[out] no

[in] I would be grateful if you could indicate the recorded call for CC1=C(C)CC2C(=O)C(C(O)CC(C)C)=CC(=O)C2C1 (stereo unspecified) .
[out] yes

[in] I would be grateful if you could indicate the recorded call for COc1ccc(/C=C/c2ccnc3ccccc23)cc1 .
[out] yes

###

test: NCI Yeast Anticancer Drug Screen. Data for the cln2 rad14 strain (AID 165);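 note: 0% = growth equal to vehicle treated cultures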; settings: S. cerevisiae cln2 rad14 strain, at 50.0 µM (retest, dose inferred, filed as 5.0), stronger effect = higher value
About 79,000 compounds went through this panel and 15% of them were active in at least one assay; those are over-represented in the sample as a whole.
Listing of recorded growth inhibition by entry.
# unit: % | format: bare number

Solved entries (count: 3):
Compound: CC(/C=C/c1ccc(Cl)c(Cl)c1)=N\NC(N)=S
growth inhibition, %: 41
--
Compound: COc1cc2c(oc(=O)c3cc(C)cc(OC)c32)c2c(C3OC(C)C(O)C(C)(O)C3O)ccc(O)c12 (stereo unspecified)
growth inhibition, %: 94
--
Compound: COC(=O)N/N=C(\C)C(CN1CCOCC1)C(c1ccccc1)c1cc2ccccc2oc1=O (stereo unspecified)
growth inhibition, %: 70

Reported growth inhibition of COC(=O)/C=N/O : -1

Reported growth inhibition of CCCCCCCCCCNCCSSCCNC(C)=O : 92

Reported growth inhibition of CCCCCCCCCCCCCCCC(=O)N1CC[N+](C)(CC2=CC3(Cl)C(Cl)=C(Cl)C2(Cl)C3(Cl)Cl)CC1 (stereo unspecified) : 98

Reported growth inhibition of OCc1cc2c([nH]c3ccccc32)c(C(O)CO)n1 (stereo unspecified) : -1

Reported growth inhibition of CN(/N=C\c1ccc(Cl)cc1)C(c1ccc(Cl)cc1)N(C)/N=C/c1ccc(Cl)cc1 (stereo unspecified) : 67

Reported growth inhibition of OC(C/C=N/Nc1ccccc1)(C(F)(F)Cl)C(F)(F)Cl : 98

Reported growth inhibition of CNC(=O)NN(C)C=O : -4

Reported growth inhibition of Nc1ccc(Oc2ccc(-c3ccccc3)cc2)c(Cl)c1 : 97
